This listing pairs compounds with measured log10 of CMC.
experiment: CMC determination by DOSY NMR (diffusion coefficients vs inverse concentration, linear regression); assay type: physicochemical; conditions: DOSY, in D2O, Table 1
Please interpret these as log10 of CMC where CMC is in mM.

compound	measuredResult
CCCCCCCCO[C@@H]1O[C@H](CO)[C@@H](O)[C@H](O)[C@H]1O [Octyl Glucoside]	1.35
CCCCCCCCCCCCOC1O[C@H](CO[C@H]2O[C@H](CO)[C@H](O)[C@H](O)[C@H]2O)[C@@H](O)[C@H](O)[C@H]1O (some centres unmarked) [Dodecyl Melibioside]	-0.52
CCCCCCCCCCO[C@@H]1O[C@H](CO)[C@@H](O)[C@H](O)[C@H]1O [Decyl Glucoside]	0.28
CCCCCCCCCCOC1O[C@H](CO)[C@@H](O[C@@H]2O[C@H](CO)[C@@H](O)[C@H](O)[C@H]2O)[C@H](O)[C@H]1O (some centres unmarked) [Decyl Cellobioside]	0.26
CCCCCCCCOC1O[C@H](CO)[C@@H](O[C@@H]2O[C@H](CO)[C@@H](O)[C@H](O)[C@H]2O)[C@H](O)[C@H]1O (some centres unmarked) [Octyl Cellobioside]	1.29
CCCCCCCCOC1O[C@H](CO[C@H]2O[C@H](CO)[C@H](O)[C@H](O)[C@H]2O)[C@@H](O)[C@H](O)[C@H]1O (some centres unmarked) [Octyl Melibioside]	1.60
CCCCCCCCCCOC1O[C@H](CO[C@H]2O[C@H](CO)[C@H](O)[C@H](O)[C@H]2O)[C@@H](O)[C@H](O)[C@H]1O (some centres unmarked) [Decyl Melibioside]	0.59

Consider the record given below.
Consider the compound shown here: CCCCCCCCCCCCOS(=O)(=O)[O-].[Na+] [SDS, reference compound] What is its recorded log10 of CMC?
0.93

----------
assay: CMC determination by DOSY NMR (diffusion coefficients vs inverse concentration, linear regression); assay type: physicochemical; settings: Table 2
reportedEndpoint: CMC, DOSY (Diffusion Coefficients) (mM)
Value expressed in mM; do not type the unit.

compound	CMC, DOSY (Diffusion Coefficients), mM
CCCCCCCCCCCCOS(=O)(=O)[O-].[Na+] [SDS, reference compound]	8.4
CCCCCCCCCCOC1O[C@H](CO)[C@@H](O[C@@H]2O[C@H](CO)[C@@H](O)[C@H](O)[C@H]2O)[C@H](O)[C@H]1O (stereo partly drawn) [Decyl Cellobioside]	2.2

Consider the record given below.
Consider the compound shown here: CCCCCCCCCCOC1O[C@H](CO[C@H]2O[C@H](CO)[C@H](O)[C@H](O)[C@H]2O)[C@@H](O)[C@H](O)[C@H]1O (stereo partly drawn) [Decyl Melibioside] What is its recorded CMC, DOSY (Diffusion Coefficients)?
3.9

----------
Assay: CMC determination by DOSY NMR (diffusion coefficients vs inverse concentration, linear regression)
Type: physicochemical
Conditions: Table 2
Description: Sample solutions were transferred (500 μL) to 5 mm NMR tubes for automated analysis via Bruker 400 MHz spectrometer. Gradient pulse strengths and delays were standardized for all experiments, with a pulse interval (δ) of 3 ms and diffusion interval (Δ) of 200 ms; these values were experimentally determined to ensure the arrayed diffusion data would provide a reasonable curve for accurate Dc determination. […]
reportedEndpoint: CMC, DOSY (Diffusion Coefficients) (mM)
Value expressed in mM; do not type the unit.

Previously resolved entries follow.
molecule	CMC, DOSY (Diffusion Coefficients), mM
CCCCCCCCO[C@@H]1O[C@H](CO)[C@@H](O)[C@H](O)[C@H]1O [Octyl Glucoside]	20
CCCCCCCCOC1O[C@H](CO)[C@@H](O[C@@H]2O[C@H](CO)[C@@H](O)[C@H](O)[C@H]2O)[C@H](O)[C@H]1O (stereo partly drawn) [Octyl Cellobioside]	21
CCCCCCCCOC1O[C@H](CO[C@H]2O[C@H](CO)[C@H](O)[C@H](O)[C@H]2O)[C@@H](O)[C@H](O)[C@H]1O (stereo partly drawn) [Octyl Melibioside]	40

Consider the molecule shown here: CCCCCCCCCCCCOC1O[C@H](CO)[C@@H](O[C@@H]2O[C@H](CO)[C@@H](O)[C@H](O)[C@H]2O)[C@H](O)[C@H]1O (stereo partly drawn) [Dodecyl Cellobioside] What is its recorded CMC, DOSY (Diffusion Coefficients)?
0.29

Consider the molecule shown here: CCCCCCCCCCO[C@@H]1O[C@H](CO)[C@@H](O)[C@H](O)[C@H]1O [Decyl Glucoside] What is its recorded CMC, DOSY (Diffusion Coefficients)?
2.1

Consider the molecule shown here: CCCCCCCCCCCCOC1O[C@H](CO[C@H]2O[C@H](CO)[C@H](O)[C@H](O)[C@H]2O)[C@@H](O)[C@H](O)[C@H]1O (stereo partly drawn) [Dodecyl Melibioside] What is its recorded CMC, DOSY (Diffusion Coefficients)?
0.31
